- Assay remarks: Compound exposure (PK) in plasma, spleen and tumor of OCI-Ly10 xenograph mice
- Type: in vivo, mouse
- Applied conditions: C.B. 17 SCID, mouse, tumor; 10 mpk, after 5d dosing; read-out: Tumor C24 h
Readout label: concentration at 24 h (µM)
Lab book: enter the figure in µM, no units written.

State its concentration at 24 h for this molecule: CC(C)(O)c1cc2nc([C@H]3CC[C@H](CN4CC5(CC(CCNc6cccc7c6C(=O)N(C6CCC(=O)NC6=O)C7=O)C5)C4)CC3)sc2cc1NC(=O)c1cccc(C(F)(F)F)n1 (stereo partly shown) [Compound A]
4.2

====

- Assay remarks: Compound exposure (PK) in plasma, spleen and tumor of OCI-Ly10 xenograph mice
- Format: in vivo, mouse
- Applied conditions: C.B. 17 SCID, mouse, spleen; 10 mpk, after 5d dosing; read-out: Spleen C24 h
Readout label: concentration at 24 h
Please provide the amount together with its unit, number first.

Indicate its recorded concentration at 24 h; the compound in question is CC(C)(O)c1cc2nc([C@H]3CC[C@H](CN4CC5(CC(CCNc6cccc7c6C(=O)N(C6CCC(=O)NC6=O)C7=O)C5)C4)CC3)sc2cc1NC(=O)c1cccc(C(F)(F)F)n1 (stereo partly shown)
4.1 µM
